Source listed as patent US6838479B2.

Catalogue of compounds with associated Ki
- SYSTEM_NAME: tissue factor/factor VIIa (Homo sapiens, UniProt P08709)
- Sequence (P08709 213-466 limits assumed): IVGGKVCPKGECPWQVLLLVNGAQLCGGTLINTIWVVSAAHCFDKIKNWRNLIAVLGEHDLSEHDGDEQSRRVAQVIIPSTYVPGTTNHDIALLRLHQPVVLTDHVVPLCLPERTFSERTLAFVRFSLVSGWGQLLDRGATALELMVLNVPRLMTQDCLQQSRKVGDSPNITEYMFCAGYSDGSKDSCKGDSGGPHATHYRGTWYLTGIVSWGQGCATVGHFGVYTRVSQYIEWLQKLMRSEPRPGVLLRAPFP
- Sequence (P08709 61-212 limits assumed): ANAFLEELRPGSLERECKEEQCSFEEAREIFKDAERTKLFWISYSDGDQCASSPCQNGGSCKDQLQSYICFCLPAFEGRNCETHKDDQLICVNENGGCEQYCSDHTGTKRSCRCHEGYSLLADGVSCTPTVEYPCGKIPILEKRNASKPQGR
- Sequence (P13726 33-251 partner limits assumed): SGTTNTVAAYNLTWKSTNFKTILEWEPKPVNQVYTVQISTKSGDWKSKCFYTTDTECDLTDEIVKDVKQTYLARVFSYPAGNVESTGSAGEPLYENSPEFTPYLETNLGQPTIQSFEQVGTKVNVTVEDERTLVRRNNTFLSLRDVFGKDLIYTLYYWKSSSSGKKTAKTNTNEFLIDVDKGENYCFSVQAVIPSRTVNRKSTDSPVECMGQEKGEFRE
- METHOD_NOTES: Tissue Factor/Factor VIIa antagonist assay (chromogenic, Ki)
- CONDITION_DETAILS: 10 nM VIIa, 30 nM TF, Chromozym-tPA 1.33 mM; read-out: binding affinity to serine proteases: VIIa
Field: numeric (µM). Do not append units.

- COMPOUND: "N=C(N)c1cccc(O[C@H]2CN[C@H](C(=O)N3CCC(O)CC3)C2)c1"
  Ki / µM: 312
- COMPOUND: "N=C(N)c1cccc(O[C@H]2CN[C@H](C(=O)NCCc3ccccc3)C2)c1 [compound 41]"
  Ki / µM: 187
- COMPOUND: "N=C(N)c1ccc(NC(=O)[C@@H]2C[C@@H](Oc3cccc(C(=N)N)c3)CN2)cc1"
  Ki / µM: 64
- COMPOUND: "N=C(N)c1cccc(O[C@H]2CN[C@H](C(=O)N[C@@H](Cc3ccccc3)C(=O)O)C2)c1"
  Ki / µM: 273

q: Recorded Ki of N=C(N)c1cccc(O[C@H]2CN[C@H](C(=O)NCc3ccc(N)cc3)C2)c1 , please.
a: 312

* * *

- SYSTEM_NAME: human Plasma Kallikrein (Homo sapiens, UniProt P03952)
- Sequence (P03952 391-638 limits assumed): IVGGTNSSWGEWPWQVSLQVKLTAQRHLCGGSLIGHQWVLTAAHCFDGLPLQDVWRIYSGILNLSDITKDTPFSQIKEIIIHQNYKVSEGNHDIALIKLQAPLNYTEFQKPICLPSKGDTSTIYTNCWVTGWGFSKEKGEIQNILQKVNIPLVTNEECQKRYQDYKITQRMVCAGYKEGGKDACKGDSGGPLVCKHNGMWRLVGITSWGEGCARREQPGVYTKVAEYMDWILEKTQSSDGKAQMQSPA
- Sequence (P03952 20-390 partner limits assumed): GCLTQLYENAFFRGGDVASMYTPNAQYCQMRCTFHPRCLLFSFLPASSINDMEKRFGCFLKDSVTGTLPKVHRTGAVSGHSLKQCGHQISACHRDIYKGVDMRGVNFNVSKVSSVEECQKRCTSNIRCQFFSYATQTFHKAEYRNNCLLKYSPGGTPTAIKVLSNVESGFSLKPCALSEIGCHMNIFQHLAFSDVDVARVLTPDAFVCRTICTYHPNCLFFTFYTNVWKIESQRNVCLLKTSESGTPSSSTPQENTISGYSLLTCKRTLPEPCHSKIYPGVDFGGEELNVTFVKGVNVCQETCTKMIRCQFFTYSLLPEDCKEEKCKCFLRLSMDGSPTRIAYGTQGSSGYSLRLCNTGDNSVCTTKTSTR
- METHOD_NOTES: Plasma Kallikrein assay (chromogenic, Ki)
- Format: biochemical
- CONDITION_DETAILS: 1.5 nM plasma kallikrein, S-2302 0.3 mM; read-out: binding affinity to serine proteases: kallikrein
- Description: Factor Xa, Thrombin, and Plasma Kallikrein Assays These procedures are used to determine the constant of inhibition (Ki) for a sample compound of the invention. Procedure • 1. Add 50 μL sample to each well. • 2. Add 50 μL appropriately diluted coagulation factor to each well. • 3. Incubate for 5 minutes at room temperature with gentle agitation. • 4. Add 50 μL appropriately diluted substrate to each well. • 5. […] Monitor absorbance at 405 nm every 10 sec for a total of 5 minutes at room temperature. • 7. […]
pKi: −log10 of the molar value.
QUANTITY: pKi

- INPUT_SMILES: "C=CCOC(=O)[C@@H]1C[C@@H](Oc2cccc(C(=N)N)c2)CN1C(=O)c1ccccc1"
  pKi: "< 4.47"
- INPUT_SMILES: "N=C(N)c1cccc(O[C@@H]2C[C@@H](C(=O)Nc3ccc(Cl)cc3)N(C(=O)c3ccccc3)C2)c1"
  pKi: "< 4.47"

Lab note: next compound to report on.
q: What value of measured pKi is listed for C=CCOC(=O)[C@@H]1C[C@@H](Oc2cccc(C(=N)N)c2)CN1C(C)=O ?
a: < 4.47

* * *

- SYSTEM_NAME: tissue factor/factor VIIa (Homo sapiens, UniProt P08709)
- METHOD_NOTES: Tissue Factor/Factor VIIa antagonist assay (chromogenic, Ki)
- CONDITION_DETAILS: 10 nM VIIa, 30 nM TF, Chromozym-tPA 1.33 mM; read-out: binding affinity to serine proteases: VIIa
pKi: −log10 of the molar value.
QUANTITY: pKi

Examples from the recorded data:
- INPUT_SMILES: "N=C(N)c1ccc(NC(=O)[C@@H]2C[C@@H](Oc3cccc(C(=N)N)c3)CN2Cc2ccc([N+](=O)[O-])cc2)cc1"
  QUANTITY: "pKi"
  RESULT: "< 4.41"
- INPUT_SMILES: "COC(=O)[C@@H]1C[C@@H](Oc2cccc(C(=N)N)c2)CN1"
  QUANTITY: "pKi"
  RESULT: "< 4.41"
- INPUT_SMILES: "CC(C)CCNC(=O)[C@@H]1C[C@@H](Oc2cccc(C(=N)N)c2)CN1"
  QUANTITY: "pKi"
  RESULT: "≤ 3.41"

q: I would be grateful if you could share the reported pKi for COc1ccc(CNC(=O)[C@@H]2C[C@@H](Oc3cccc(C(=N)N)c3)CN2)cc1 .
a: ≤ 3.41

q: Please look up its pKi: Cc1cccc(CNC(=O)[C@@H]2C[C@@H](Oc3cccc(C(=N)N)c3)CN2)c1
a: ≤ 3.41

q: Param item = CS(=O)(=O)N1C[C@H](Oc2cccc(C(=N)N)c2)C[C@H]1C(=O)Nc1ccc(Cl)cc1 ; retrieve measured pKi.
a: < 4.41

q: Returns the measured pKi for the input compound. Input: C[C@H](NC(=O)[C@@H]1C[C@@H](Oc2cccc(C(=N)N)c2)CN1)C(=O)O
a: ≤ 3.41

q: Requested read-out: pKi. Entry: CCCCCCN1C[C@H](Oc2cccc(C(=N)N)c2)C[C@H]1C(=O)Nc1ccc(C(=N)N)cc1
a: < 4.41

q: Using the record for N=C(N)c1cccc(O[C@@H]2C[C@@H](C(=O)O)N(S(=O)(=O)c3ccccc3)C2)c1 , report its pKi.
a: < 3.71

* * *

- SYSTEM_NAME: human Factor Xa (Homo sapiens, UniProt P00742)
- Construct: This complex converts factor X to Xa
- Sequence (P00742 235-488 limits assumed): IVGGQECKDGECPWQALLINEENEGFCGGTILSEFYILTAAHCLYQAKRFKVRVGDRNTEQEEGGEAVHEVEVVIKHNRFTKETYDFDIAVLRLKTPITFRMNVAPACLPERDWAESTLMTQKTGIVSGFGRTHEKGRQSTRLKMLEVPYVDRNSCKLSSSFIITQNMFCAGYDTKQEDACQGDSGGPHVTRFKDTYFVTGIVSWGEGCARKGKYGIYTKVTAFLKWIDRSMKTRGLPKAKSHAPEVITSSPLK
- Sequence (P00742 41-179 limits assumed): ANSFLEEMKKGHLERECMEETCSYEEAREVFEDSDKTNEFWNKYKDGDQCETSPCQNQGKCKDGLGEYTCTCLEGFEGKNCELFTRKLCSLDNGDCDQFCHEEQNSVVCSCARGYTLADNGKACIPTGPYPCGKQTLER
- METHOD_NOTES: Factor Xa assay (chromogenic, Ki)
- CONDITION_DETAILS: 3.3 nM Xa, S-2222 0.5 mM; read-out: binding affinity to serine proteases: Xa
- Protocol: Factor Xa, Thrombin, and Plasma Kallikrein Assays These procedures are used to determine the constant of inhibition (Ki) for a sample compound of the invention. Procedure • 1. Add 50 μL sample to each well. • 2. Add 50 μL appropriately diluted coagulation factor to each well. • 3. Incubate for 5 minutes at room temperature with gentle agitation. • 4. Add 50 μL appropriately diluted substrate to each well. • 5. […] Monitor absorbance at 405 nm every 10 sec for a total of 5 minutes at room temperature. • 7. […]
QUANTITY: Ki

Use these answered entries as a reference point.
- INPUT_SMILES: "CS(=O)(=O)N1C[C@H](Oc2cccc(C(=N)N)c2)C[C@H]1C(=O)O"
  RESULT: "> 175 µM"
- INPUT_SMILES: "COc1cc2c(cc1OC)CN(C(=O)[C@@H]1C[C@@H](Oc3cccc(C(=N)N)c3)CN1)CC2"
  RESULT: "5.84 µM"
- INPUT_SMILES: "Cc1cccc(CNC(=O)[C@@H]2C[C@@H](Oc3cccc(C(=N)N)c3)CN2)c1"
  RESULT: "6.12 µM"
- INPUT_SMILES: "N=C(N)c1cccc(O[C@H]2CN[C@H](C(=O)Nc3ccccc3C(F)(F)F)C2)c1"
  RESULT: "24.5 µM"

Proceeding to the next compound to report its Ki.
q: Given the compound N=C(N)c1cccc(O[C@H]2CN[C@H](C(N)=O)C2)c1 , what is its reported Ki?
a: 70.1 µM

* * *

- SYSTEM_NAME: tissue factor/factor VIIa (Homo sapiens, UniProt P08709)
- METHOD_NOTES: Tissue Factor/Factor VIIa antagonist assay (chromogenic, Ki)
- CONDITION_DETAILS: 10 nM VIIa, 30 nM TF, Chromozym-tPA 1.33 mM; read-out: binding affinity to serine proteases: VIIa
- Description: Tissue Factor/Factor VIIa Antagonist Assay This procedure is used to determine the constant of inhibition (Ki) for a sample compound of the invention. Procedure • 1. Prepare a solution of 2 μg/mL (90 nM) tissue factor and 1.5 μg/mL (30 nM) factor VIIa in assay buffer with CaCl2. • 2. Incubate for 15 minutes at room temperature. • 3. Add 50 μL sample to each well. • 4. […] Monitor absorbance at 405 nm every 10 see for a total of 5 minutes at room temperature. • 9. […]
Parameter: Ki. Scope: all listed entries.

q: So what does the record say about Ki for N=C(N)c1cccc(O[C@H]2CN[C@H](C(=O)N3CCCC(C(=O)O)C3)C2)c1 (stereo partly drawn) [compound 67] ?
a: ≥ 390 µM

q: # query: Ki of entry COc1ccc(CNC(=O)[C@@H]2C[C@@H](Oc3cccc(C(=N)N)c3)CN2C(=O)c2ccccc2)cc1 [compound 56]
a: > 195 µM

q: Given COc1ccc(CNC(=O)[C@@H]2C[C@@H](Oc3cccc(C(=N)N)c3)CN2C(C)=O)cc1 [compound 23] , state its recorded Ki.
a: > 195 µM
